Reference source: patent US12421222B2

Test system: acetylated tubulin (Lys40) in HeLa cells
Test: Acetylated α-tubulin measurement in vitro (immunocytochemistry)
Assay type: cell-based
Conditions: Homo sapiens, 6 hours incubation, acetylated tubulin (Lys40) by immunocytochemistry, read-out: IC50 (Tubulin deacetylation)
pIC50: −log10 of the molar value.
readout_kind: pIC50

> print(dat)
                                   compound                          target.or.system  readout.kind           val
1  COc1ccc2nc(C)nc(SCC(=O)c3ccc(CN4CCC(O)C4=O)s3)c2c1 (centres unmarked)  acetylated tubulin (Lys40) in HeLa cells         pIC50  6.30 to 7.00
2  Cn1cc2c(SCC(=O)c3ccc(CNC(=O)CO)s3)nc(C(F)(F)F)nc2n1  acetylated tubulin (Lys40) in HeLa cells         pIC50        ≥ 7.00

Record pIC50 for all entries; do not skip any.
1. Cn1cc2c(SCC(=O)c3ccc(CNC(=O)CO)s3)nc(C(F)F)nc2n1
2. CCOc1cnc2nc(C)nc(SCC(=O)c3ccc(CNC(=O)CO)s3)c2c1
3. Cc1nc(SCC(=O)c2ccc(CNC(=O)CO)s2)c2cc(N(C)C)ncc2n1

Result ::
1. 6.30 to 7.00
2. ≥ 7.00
3. ≥ 7.00

Record pIC50 for all entries; do not skip any.
1. O=C(CO)NCc1ccc(C(=O)CSc2nccn3nccc23)s1
2. COc1ccc2c(SCC(=O)c3ccc(CNC(=O)C(C)(C)C)s3)nc(C)nc2c1
3. Cc1nc(SCC(=O)c2ccc(CNC(=O)CO)s2)c2cc(N3CCC(F)(F)C3)ccc2n1
4. COc1ccc2nc(C)nc(SCC(=O)c3ccc(CNC(=O)C4CC4(F)F)s3)c2c1 (centres unmarked)
5. O=C(CSc1nc(C(F)(F)F)nc2ncccc12)c1ccc(CNS(=O)(=O)CC(F)(F)F)s1
6. Cc1nc(SCC(=O)c2ccc(CNC(=O)CO)s2)c2ncccc2n1
7. CN(Cc1ccc(C(=O)CSc2ncnc3c2cnn3C)s1)S(=O)(=O)C1CC1

Result ::
6.00 to 6.30
5.48 to 6.00
≥ 7.00
6.00 to 6.30
6.30 to 7.00
≥ 7.00
< 5.48

Record pIC50 for all entries; do not skip any.
1. COc1ccc2nc(C)nc(SCC(=O)c3ccc(CNC(=O)C4CCCO4)s3)c2c1 (centres unmarked)
2. Cc1nc(SCC(=O)c2ccc(CNC(=O)C(C)(C)C)s2)c2cc(F)ccc2n1
3. O=C(CO)NCc1ccc(C(=O)CSc2nc(C(F)(F)F)nc3cccnc23)s1
4. O=C(CSc1nc(C(F)(F)F)nc2ncccc12)c1ccc(CN2CCCC2=O)s1
5. COc1ccc2nc(C)nc(SCC(=O)c3ccc(CNC(=O)C(F)(F)C(F)(F)F)s3)c2c1

Result ::
6.30 to 7.00
5.48 to 6.00
≥ 7.00
≥ 7.00
6.00 to 6.30
